system: Plasmodium falciparum; assay: GSK_TCMDC: Inhibition of Plasmodium falciparum Dd2 in whole red blood cells, using parasite LDH activity as an index of growth. Test compounds present at 2uM; assay type: functional
Task for the reader: assign each of the following molecules its reported Inhibition.
Provide only the numeric value, understood in %.

So the reported Inhibition for CC[C@H]1CN2CC[C@H]1C[C@@H]2[C@@H](O)c1cc(Cl)nc2ccc(OC)cc12 , on Plasmodium falciparum, turned out to be 82

So the reported Inhibition for CC[C@H]1CN2CC[C@@H]1C[C@H]2[C@H](O)c1cc(N2CCCC(C)(C)C2)nc2ccc(OC)cc12 , on Plasmodium falciparum, turned out to be 72

So the reported Inhibition for CC[C@H]1CN2CC[C@H]1C[C@H]2[C@H](O)c1cc(/C=C/c2ccccc2)nc2ccc(OC)cc12 , on Plasmodium falciparum, turned out to be 99

So the reported Inhibition for Cc1c(C(=O)N[C@@H](C)c2ccccc2)c2cc(O)c(Br)cc2n1C1CCCCC1 , on Plasmodium falciparum, turned out to be 95

So the reported Inhibition for Cc1cccc(C(=O)Nc2ccnc(N(C)C3CCN(Cc4cccc(O)c4)CC3)c2)c1.O=C(O)C(F)(F)F , on Plasmodium falciparum, turned out to be 62

So the reported Inhibition for N#Cc1c(Cl)cccc1Oc1ccc(S(=O)(=O)N2CCC(CN3CCC(c4c[nH]c5ccccc45)CC3)CC2)cc1 , on Plasmodium falciparum, turned out to be 67

So the reported Inhibition for Cc1cc(C2CCCCN2C)ccc1-c1ccc(C(=O)N2CCc3cc4c(cc32)C2(CCN(C)CC2)CO4)cc1.Cl (stereo not drawn) , on Plasmodium falciparum, turned out to be 94

So the reported Inhibition for CC(C)CNCc1cccc(-c2ccccc2CN(C(=O)Nc2ccccc2)C2CCN(Cc3ccccc3)CC2)c1.O=C(O)C(F)(F)F , on Plasmodium falciparum, turned out to be 68
